B1: CPEB3 Ribozyme (parent)
chain: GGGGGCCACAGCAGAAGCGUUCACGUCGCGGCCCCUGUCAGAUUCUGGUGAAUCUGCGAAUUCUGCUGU

Variants of: B1
Protocol text: self-cleavage, relative activity (ratio to wild type); higher = more cleavage; co-transcriptional
Respond with Criterion met for self-cleavage values of 0.5 and above, Criterion not met for values below.

Mutant label: G37C A60U
Answer label: Criterion not met
--
Mutant label: C24A C29A
Answer label: Criterion not met
--
Mutant label: G2A U62C
Answer label: Criterion not met
--
Mutant label: G17A C63A
Answer label: Criterion not met
--
Mutant label: C18U U55A
Answer label: Criterion not met
--
Mutant label: C29G U36G
Answer label: Criterion not met
--
Mutant label: G17U U44A
Answer label: Criterion not met
--
Mutant label: U43C
Answer label: Criterion met
--
Mutant label: G3C C27G
Answer label: Criterion not met
--
Mutant label: A8C C66G
Answer label: Criterion met
--
Mutant label: G3C A40G
Answer label: Criterion not met
--
Mutant label: C34G G50C
Answer label: Criterion met
--
Mutant label: U49C G50C
Answer label: Criterion met
--
Mutant label: G1U A23U
Answer label: Criterion not met
--
Mutant label: C6U G50A
Answer label: Criterion met
--
Mutant label: A16U C63G
Answer label: Criterion not met
--
Mutant label: G3U A59U
Answer label: Criterion not met
--
Mutant label: G14A G58U
Answer label: Criterion met
--
Mutant label: A23U G48U
Answer label: Criterion met
--
Mutant label: G31C G48A
Answer label: Criterion not met
--
Mutant label: U36G A40G
Answer label: Criterion not met
--
Mutant label: G2U C33G
Answer label: Criterion not met
--
Mutant label: G14A C66U
Answer label: Criterion not met
--
Mutant label: G4C C57A
Answer label: Criterion not met
--
Mutant label: G4A G68U
Answer label: Criterion met
